# Tested on: level of blood sugar
# MEASUREMENT_PROTOCOL: Anti-hyperglycemia activity (reduction of blood sugar level)
# Type: in vivo, rat (Wistar, streptozotocin)
# CONDITION_NOTES: oral, 300 mg/kg, 3 hrs.
# Text: […]
PROPERTY: Reduced level of blood sugar after 3 hrs. (mg/dL)
Give your result in mg/dL as a bare value.

COMPOUND	MEAS_VALUE
C[C@@H]1OC(Nc2ccc(CC(=O)O)cc2)[C@H](O)[C@H](O)[C@H]1O (some centres unmarked) [Compound 29]	88
NC(=O)c1ccc(NC2OC[C@@H](O)[C@H](O)[C@H]2O)cc1 (stereo partly drawn) [Compound 3, p-aminobenzoic acid amide-N-D-xyloside]	101
O=C(OCC1CCCCC1)c1ccc(NC2O[C@H](CO)[C@@H](O)[C@H](O)[C@H]2O)cc1 (some centres unmarked) [Compound 24]	101
NC(=O)c1ccccc1NC1(CO)OC[C@@H](O)[C@@H](O)[C@@H]1O (stereo partly drawn) [Compound 1, o-Aminobenzoic acid amide-N-D-fructoside]	68

Turning now to a further compound:
IN: Which Reduced level of blood sugar after 3 hrs. is reported for this compound? O=C(OC1CCCCC1)c1ccccc1NC1C[C@H](O)[C@H](O)CO1 (some centres unmarked) [Compound 16]
OUT: 125
